Biological target: EP3 receptor (Homo sapiens, UniProt P43115)
Construct: purchased Millipore HTS092M
Sequence (P43115 whole entry): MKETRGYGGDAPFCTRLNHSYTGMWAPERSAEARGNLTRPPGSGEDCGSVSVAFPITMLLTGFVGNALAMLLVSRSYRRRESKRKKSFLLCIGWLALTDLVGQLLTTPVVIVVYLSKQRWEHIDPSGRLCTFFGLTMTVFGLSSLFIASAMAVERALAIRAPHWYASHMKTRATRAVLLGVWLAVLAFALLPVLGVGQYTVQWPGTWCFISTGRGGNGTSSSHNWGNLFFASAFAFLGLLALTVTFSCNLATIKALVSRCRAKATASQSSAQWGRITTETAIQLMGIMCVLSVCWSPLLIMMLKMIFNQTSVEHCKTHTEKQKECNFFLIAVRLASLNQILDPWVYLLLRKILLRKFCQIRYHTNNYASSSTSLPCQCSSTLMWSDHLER
Experiment: [3H]-PGE2 binding assay (EP3 competition binding)
Conditions: read-out: [3H]-PGE2 Binding Ki
Ki values for the compounds below.
measured_property: Ki (nM)

compound	comparison_operator	recorded_measurement
CCn1cnc2ccc(-c3ccc(C(C=C4OC(=O)NC4=O)C(C)C)c(=O)[nH]3)c(F)c21 (centres unmarked) [compound 91]	>	10000
CCn1ncc2c(F)cc(-c3ccc(C(CC)(CC)c4nnc(N(C)C)s4)c(=O)[nH]3)cc21 [Compound #48]	=	2
CN(C)C1=NC(C)(c2ccc(-c3ccc4ccccc4c3)[nH]c2=O)CN1 (centres unmarked) [compound 289]	=	1800
CCn1ncc2c(C)cc(-c3ccc(C(CC4OC(=O)NC4=O)C(C)C)c(=O)[nH]3)cc21 (centres unmarked) [compound 126]	=	65
CCOC(=O)C(=C1CCCCC1)c1ccc(-c2ccc3ccccc3c2)[nH]c1=O [compound 281]	=	37
CC1=NC(C)(c2ccc(-c3ccc4ccccc4c3)[nH]c2=O)C(=O)N1 (centres unmarked) [compound 223]	=	496
CCN1CCOc2ccc(-c3ccc(C(CC)(CC)CC4OC(=O)NC4=O)c(=O)[nH]3)cc21 (centres unmarked) [compound 44]	=	93
O=c1[nH]c(-c2ccc3ccccc3c2)ccc1C1CCc2n[nH]cc2C1 (centres unmarked) [compound 195]	=	42

----------
Target: EP3 receptor (Homo sapiens, UniProt P43115)
Test: CHO cell cAMP assay (forskolin and sulprostone stimulated, HTRF)
Conditions: CHO cells; sulprostone 700 nM (EC80) and FSK 2 μM (EC70), 37° C. for 30 minutes; read-out: CHO_cAMP IC50
IC50 values for the compounds below.
measured_property: IC50 (nM)

compound	recorded_measurement
CCn1ncc2c(C)cc(-c3ccc(C(CC4OC(=O)NC4=O)C(C)C)c(=O)[nH]3)cc21 (stereo not shown)	382
CC(C)C(/C=C1\OC(=O)NC1=O)c1ccc(-c2cc(F)c3cnn(C4CCCC4)c3c2)[nH]c1=O (stereo not shown)	19200
CC(C)/C(=C1/OC(=O)NC1=O)c1ccc(-c2ccc3cccc(F)c3c2)[nH]c1=O	1280
O=C1NC(=O)/C(=C/C(c2ccc(-c3ccc4cccc(F)c4c3)[nH]c2=O)C2CCCCC2)O1 (stereo not shown)	8

----------
Target: EP3 receptor (Homo sapiens)
Assay: CHO cell cAMP assay (forskolin and sulprostone stimulated, HTRF)
Conditions: CHO cells; sulprostone 700 nM (EC80) and FSK 2 μM (EC70), 37° C. for 30 minutes; read-out: CHO_cAMP IC50
pIC50: −log10 of the molar value.

compound	comparison_operator	pIC50
CN(C)C1=NC(C)(c2ccc(-c3ccc4ccccc4c3)[nH]c2=O)CN1 (stereo not shown)	<	4.70
CC(C)C(C(=O)NCCN(C)C)c1ccc(-c2ccc3c(c2)OCCN3C)[nH]c1=O (stereo not shown)	=	5.62
CCn1ncc2c(F)cc(-c3ccc(C4CCCN(S(=O)(=O)C(C)C)C4)c(=O)[nH]3)cc21 (stereo not shown)	=	7.43
CCn1ncc2c(F)cc(-c3ccc(C4CCN(S(=O)(=O)C(C)C)CC4)c(=O)[nH]3)cc21	=	6.28

----------
Target: EP3 receptor (Homo sapiens, UniProt P43115)
Construct: purchased Millipore HTS092M
Assay: [3H]-PGE2 binding assay (EP3 competition binding)
Conditions: read-out: [3H]-PGE2 Binding Ki
measured_property: Ki (nM)

compound	unit_name	recorded_measurement
CC(C)C(c1ccc(-c2ccc3cccc(F)c3c2)[nH]c1=O)N(C)C(N)=O (centres unmarked) [compound 265]	nM	34
CCn1ncc2c(F)cc(-c3ccc(C(CC)(CC)CC4CCCNC4=O)c(=O)[nH]3)cc21 (centres unmarked) [compound 58]	nM	7
CC(C)C(/C=C1/C(=O)NC(=O)N1C)c1ccc(-c2ccc3cccc(F)c3c2)[nH]c1=O (centres unmarked) [Compound #80]	nM	6
CC1(c2ccc(-c3ccc4ccccc4c3)[nH]c2=O)Cn2cnnc2N1 (centres unmarked) [compound 167]	nM	151
CCn1ncc2c(F)cc(-c3ccc(C(/C=C4\CCNC4=O)(CC)CC)c(=O)[nH]3)cc21 [compound 16]	nM	6

----------
Target: EP3 receptor (Homo sapiens, UniProt P43115)
Construct: purchased Millipore HTS092M
Assay: [3H]-PGE2 binding assay (EP3 competition binding)
Settings: read-out: [3H]-PGE2 Binding Ki
Response field label takes Met when Ki is strictly below 50 nM and Not met in all other cases.

compound	subject_of_test	group
CC1(c2ccc(-c3ccc4ccccc4c3)[nH]c2=O)N=CNC1=O (centres unmarked)	EP3 receptor (Homo sapiens, UniProt P43115)	Not met
CCN1CCOc2ccc(-c3ccc(C(CN4CCS(=O)(=O)CC4)C(C)C)c(=O)[nH]3)cc21 (centres unmarked)	EP3 receptor (Homo sapiens, UniProt P43115)	Not met
CC(C)C(C(=O)NC1CCNC1)c1ccc(-c2ccc3cccc(F)c3c2)[nH]c1=O (centres unmarked)	EP3 receptor (Homo sapiens, UniProt P43115)	Met
CONC(=O)CC(c1ccc(-c2ccc3cccc(F)c3c2)[nH]c1=O)C(C)C (centres unmarked)	EP3 receptor (Homo sapiens, UniProt P43115)	Met
CS(=O)(=O)N1CCC(c2ccc(-c3ccc4ccccc4c3)[nH]c2=O)CC1	EP3 receptor (Homo sapiens, UniProt P43115)	Met
CC(C)C(N/C(N)=N/C#N)c1ccc(-c2ccc3cccc(F)c3c2)[nH]c1=O (centres unmarked)	EP3 receptor (Homo sapiens, UniProt P43115)	Met
CC(C)C1(Cc2ccc(-c3ccc4cccc(F)c4c3)[nH]c2=O)OC(=O)NC1=O (centres unmarked)	EP3 receptor (Homo sapiens, UniProt P43115)	Not met

----------
pKi values for the compounds below.
Target: EP3 receptor (Homo sapiens, UniProt P43115)
Construct: purchased Millipore HTS092M
Test: [3H]-PGE2 binding assay (EP3 competition binding)
Conditions: read-out: [3H]-PGE2 Binding Ki
pKi: −log10 of the molar value.

compound	subject_of_test	comparison_operator	pKi
CC(C)S(=O)(=O)N1CCC(c2ccc(-c3ccc4cc(F)ccc4c3)[nH]c2=O)CC1 [compound 199]	EP3 receptor (Homo sapiens, UniProt P43115)	<	5.00
CCn1ncc2c(F)cc(-c3ccc(C(C(C)C)n4cnnc4)c(=O)[nH]3)cc21 (stereo not shown) [Compound #172]	EP3 receptor (Homo sapiens, UniProt P43115)	=	7.60
CCn1ncc2c(F)cc(-c3ccc(C(C(C)C)N4CCS(=O)(=O)CC4)c(=O)[nH]3)cc21 (stereo not shown) [Compound #168]	EP3 receptor (Homo sapiens, UniProt P43115)	=	7.59
CCn1ncc2c(F)cc(-c3ccc(C(CN4CCN(S(C)(=O)=O)CC4)C(C)C)c(=O)[nH]3)cc21 (stereo not shown) [Compound #109]	EP3 receptor (Homo sapiens, UniProt P43115)	=	7.57
CC1(c2ccc(-c3ccc4ccccc4c3)[nH]c2=O)C(=O)Nc2nncn21 (stereo not shown) [compound 152]	EP3 receptor (Homo sapiens, UniProt P43115)	=	6.37
CCn1ncc2c(F)cc(-c3ccc(C(CC)(CC)c4noc(=O)[nH]4)c(=O)[nH]3)cc21 [Compound #4]	EP3 receptor (Homo sapiens, UniProt P43115)	=	7.06
CCn1ncc2c(F)cc(-c3ccc(C4(F)CCCN(S(=O)(=O)C(C)C)C4)c(=O)[nH]3)cc21 (stereo not shown) [compound 296]	EP3 receptor (Homo sapiens, UniProt P43115)	=	9.00
CCn1ncc2c(F)c(-c3ccc(C(/C=C4/OC(=O)NC4=O)(CC)CC)c(=O)[nH]3)ccc21 [compound 12]	EP3 receptor (Homo sapiens, UniProt P43115)	=	5.87
CCc1nnc(C(CC)(CC)c2ccc(-c3cc(F)c4cnn(CC)c4c3)[nH]c2=O)o1 [Compound #53]	EP3 receptor (Homo sapiens, UniProt P43115)	=	8.22
CC1(c2ccc(-c3ccc4ccccc4c3)[nH]c2=O)CNS(=O)(=O)N1 (stereo not shown) [compound 282]	EP3 receptor (Homo sapiens, UniProt P43115)	=	6.13
CC(C)C(O)(CC(N)=O)c1ccc(-c2ccc3cccc(F)c3c2)[nH]c1=O (stereo not shown) [compound 255]	EP3 receptor (Homo sapiens, UniProt P43115)	=	8.05
O=C1NC(=O)[C@]2(CCC[C@H](c3ccc(-c4ccc5ccccc5c4)[nH]c3=O)C2)N1 (racemic) [compound 191]	EP3 receptor (Homo sapiens, UniProt P43115)	=	8.30
CCn1ncc2c(F)cc(-c3ccc(C4CC5COC(=O)N5C4)c(=O)[nH]3)cc21 (stereo not shown) [compound 215]	EP3 receptor (Homo sapiens, UniProt P43115)	=	6.78
CCC(/C=C1/OC(=O)NC1=O)(CC)c1ccc(-c2ccc3c(c2)OC(C)(C)C=C3)[nH]c1=O [compound 28]	EP3 receptor (Homo sapiens, UniProt P43115)	=	5.25
CCn1ncc2c(F)cc(-c3ccc(C(c4noc(=O)[nH]4)C(C)C)c(=O)[nH]3)cc21 (stereo not shown) [Compound #277]	EP3 receptor (Homo sapiens, UniProt P43115)	=	6.97
CC(C)C(C(=O)NCCN(C)C)c1ccc(-c2ccc3cc(F)ccc3c2)[nH]c1=O (stereo not shown) [compound 242]	EP3 receptor (Homo sapiens, UniProt P43115)	=	6.40

Values were extracted from patent US10336701B2.
